# testSystem: HLA-A*69:01
# assayExplanation: IEDB peptide-MHC binding, purified MHC/competitive/fluorescence; filed as Kd, often an IC50 or EC50 that approximates it; bounds were set here for any values at or beyond the usual limits of such assays
# studyConditions: source organism: Cryptosporidium parvum Iowa II
measuredAttribute: Kd

>>> observedmeasurement("MSQMPPHPY")
"≥ 20 µM"

###

# testSystem: HLA-B*51:01
# assayExplanation: IEDB peptide-MHC binding, purified MHC/competitive/fluorescence; filed as Kd, often an IC50 or EC50 that approximates it; bounds were set here for any values at or beyond the usual limits of such assays
# studyConditions: source organism: Human herpesvirus 5 strain Towne
measuredAttribute: Kd

>>> observedmeasurement("LPLKMLNIPSINVH")
"≥ 20 µM"

###

# testSystem: HLA-A*11:01
# assayExplanation: IEDB peptide-MHC binding, purified MHC/competitive/radioactivity; filed as Kd, often an IC50 or EC50 that approximates it; bounds were set here for any values at or beyond the usual limits of such assays
# studyConditions: source organism: Mammarenavirus tacaribeense
measuredAttribute: Kd (µM)

>>> observedmeasurement("VCPLGLLLK")
2.42

###

# testSystem: HLA-A*02:01
# assayExplanation: IEDB peptide-MHC binding, purified MHC/direct/fluorescence; filed as Kd, often an IC50 or EC50 that approximates it; bounds were set here for any values at or beyond the usual limits of such assays
# studyConditions: source organism: Marburg virus - Musoke, Kenya, 1980
measuredAttribute: Kd

>>> observedmeasurement("IISTNTLGK")
"≥ 20 µM"

###

# testSystem: HLA-A*02:06
# assayExplanation: IEDB peptide-MHC binding, purified MHC/competitive/radioactivity; filed as Kd, often an IC50 or EC50 that approximates it; bounds were set here for any values at or beyond the usual limits of such assays
# studyConditions: source organism: Trypanosoma cruzi
measuredAttribute: Kd (µM)

>>> observedmeasurement("DTMRPTTVV")
3.04

###

# testSystem: HLA-B*07:02
# assayExplanation: IEDB peptide-MHC binding, purified MHC/competitive/radioactivity; bounds were set here for any values at or beyond the usual limits of such assays
# studyConditions: source organism: dengue virus type 1
measuredAttribute: IC50

>>> observedmeasurement("HPASAWTLYA")
"6.15 nM"

###

# testSystem: HLA-A*11:01
# assayExplanation: IEDB peptide-MHC binding, purified MHC/direct/fluorescence; filed as Kd, often an IC50 or EC50 that approximates it; bounds were set here for any values at or beyond the usual limits of such assays
# studyConditions: source organism: Vibrio vulnificus
measuredAttribute: Kd (µM)

>>> observedmeasurement("QSPQPVRVK")
12.2

###

# testSystem: HLA-B*39:01
# assayExplanation: IEDB peptide-MHC binding, purified MHC/competitive/fluorescence; filed as Kd, often an IC50 or EC50 that approximates it; bounds were set here for any values at or beyond the usual limits of such assays
# studyConditions: source organism: Orthohantavirus andesense
measuredAttribute: Kd

>>> observedmeasurement("KPKALSEAF")
"≥ 20 µM"
>>> observedmeasurement("LEEDIQHFL")
"≥ 20 µM"

###

# testSystem: HLA-A*30:01
# assayExplanation: IEDB peptide-MHC binding, purified MHC/direct/fluorescence; filed as Kd, often an IC50 or EC50 that approximates it; bounds were set here for any values at or beyond the usual limits of such assays
# studyConditions: source organism: Vibrio vulnificus
measuredAttribute: Kd (µM)

>>> observedmeasurement("QSPQPVRVK")
3.75

###

# testSystem: HLA-C*05:01
# assayExplanation: IEDB peptide-MHC binding, purified MHC/direct/fluorescence; filed as Kd, often an IC50 or EC50 that approximates it; bounds were set here for any values at or beyond the usual limits of such assays
# studyConditions: source organism: Brucella melitensis bv. 1 str. 16M
measuredAttribute: Kd (nM)

>>> observedmeasurement("LSDDSGLMV")
7

###

# testSystem: HLA-A*69:01
# assayExplanation: IEDB peptide-MHC binding, purified MHC/direct/fluorescence; filed as Kd, often an IC50 or EC50 that approximates it; bounds were set here for any values at or beyond the usual limits of such assays
# studyConditions: source organism: Pseudomonas tolaasii
measuredAttribute: Kd

>>> observedmeasurement("AEGTGITHL")
"≥ 20 µM"

###

# testSystem: HLA-A*31:01
# assayExplanation: IEDB peptide-MHC binding, purified MHC/competitive/radioactivity; filed as Kd, often an IC50 or EC50 that approximates it; bounds were set here for any values at or beyond the usual limits of such assays
# studyConditions: source organism: Dengue virus 2 Jamaica/1409/1983
pKd: −log10 of the molar value.
measuredAttribute: pKd

>>> observedmeasurement("TMRCIGISNR")
8.44
>>> observedmeasurement("RMLNILNRR")
8.62
>>> observedmeasurement("TTNIWLKLR")
8.58

###

# testSystem: HLA-A*02:01
# assayExplanation: IEDB peptide-MHC binding, purified MHC/direct/fluorescence; filed as Kd, often an IC50 or EC50 that approximates it; bounds were set here for any values at or beyond the usual limits of such assays
# studyConditions: source organism: Sudan ebolavirus - Maleo (1979)
measuredAttribute: Kd (nM)

>>> observedmeasurement("VLYHRYNLV")
18.1

###

# testSystem: HLA-A*24:03
# assayExplanation: IEDB peptide-MHC binding, purified MHC/direct/fluorescence; filed as Kd, often an IC50 or EC50 that approximates it; bounds were set here for any values at or beyond the usual limits of such assays
# studyConditions: source organism: Neisseria gonorrhoeae
pKd: −log10 of the molar value.
measuredAttribute: pKd

>>> observedmeasurement("GSDKQVVGQ")
"≤ 4.70"

###

# testSystem: HLA-B*15:01
# assayExplanation: IEDB peptide-MHC binding, purified MHC/competitive/fluorescence; bounds were set here for any values at or beyond the usual limits of such assays
# studyConditions: source organism: Homo sapiens
measuredAttribute: IC50 (µM)

>>> observedmeasurement("SYFTNMFATWSP")
5.8

###

# testSystem: HLA-A*02:06
# assayExplanation: IEDB peptide-MHC binding, purified MHC/competitive/radioactivity; filed as Kd, often an IC50 or EC50 that approximates it; bounds were set here for any values at or beyond the usual limits of such assays
# studyConditions: source organism: Dengue virus 1 Brazil/97-11/1997
The reader will find reported Kd values listed item by item below.
measuredAttribute: Kd (nM)

>>> observedmeasurement("FQPHQLWTT")
6.01
>>> observedmeasurement("LTAAVLMLV")
10.6
>>> observedmeasurement("KLVMAFIAFL")
11.5
>>> observedmeasurement("TAYGVLFSGV")
1.54

###

# testSystem: HLA-B*07:02
# assayExplanation: IEDB peptide-MHC binding, purified MHC/competitive/radioactivity; filed as Kd, often an IC50 or EC50 that approximates it; bounds were set here for any values at or beyond the usual limits of such assays
# studyConditions: source organism: Dengue virus 4 Dominica/814669/1981
pKd: −log10 of the molar value.
measuredAttribute: pKd

>>> observedmeasurement("SPGYVLGVF")
8.06

###

# testSystem: HLA-A*02:01
# assayExplanation: IEDB peptide-MHC binding, purified MHC/competitive/fluorescence; filed as Kd, often an IC50 or EC50 that approximates it; bounds were set here for any values at or beyond the usual limits of such assays
# studyConditions: source organism: Vaccinia virus Copenhagen
pKd: −log10 of the molar value.
measuredAttribute: pKd

>>> observedmeasurement("YLYASFCTV")
8.49
>>> observedmeasurement("YPPPRYITV")
6.97
>>> observedmeasurement("YLDYDTIYV")
9.40

###

# testSystem: HLA-B*46:01
# assayExplanation: IEDB peptide-MHC binding, purified MHC/direct/fluorescence; filed as Kd, often an IC50 or EC50 that approximates it; bounds were set here for any values at or beyond the usual limits of such assays
# studyConditions: source organism: Salmonella enterica subsp. enterica serovar Typhimurium
measuredAttribute: Kd

>>> observedmeasurement("LAMLVLHQV")
"≥ 20 µM"

###

# testSystem: HLA-A*29:02
# assayExplanation: IEDB peptide-MHC binding, purified MHC/competitive/fluorescence; filed as Kd, often an IC50 or EC50 that approximates it; bounds were set here for any values at or beyond the usual limits of such assays
# studyConditions: source organism: Vibrio parahaemolyticus RIMD 2210633
pKd: −log10 of the molar value.
measuredAttribute: pKd

>>> observedmeasurement("HVIYFTAFT")
"≤ 4.70"

###

# testSystem: HLA-A*80:01
# assayExplanation: IEDB peptide-MHC binding, purified MHC/direct/fluorescence; filed as Kd, often an IC50 or EC50 that approximates it; bounds were set here for any values at or beyond the usual limits of such assays
# studyConditions: source organism: Mammarenavirus lassaense
pKd: −log10 of the molar value.
measuredAttribute: pKd

>>> observedmeasurement("YSQESPQSY")
"≤ 4.70"

###

# testSystem: HLA-B*35:01
# assayExplanation: IEDB peptide-MHC binding, purified MHC/competitive/radioactivity; filed as Kd, often an IC50 or EC50 that approximates it; bounds were set here for any values at or beyond the usual limits of such assays
# studyConditions: source organism: Vaccinia virus WR
pKd: −log10 of the molar value.
measuredAttribute: pKd

>>> observedmeasurement("SPETQQMII")
6.07
>>> observedmeasurement("LPFYETLPEL")
7.20
>>> observedmeasurement("VPHSVFIASA")
5.07
>>> observedmeasurement("NPTKYIRWKL")
4.82
